- Tested on: LNCaP tumor-transplanted mouse
- ASSAY_PROTOCOL: Internal radioactivity distribution using LNCaP tumor-transplanted mouse
- Type: in vivo
- ASSAY_CONTEXT: 4 h after administration
PROPERTY_LABEL: Muscle (% ID/g)
Entry rule: numbers only, all in % ID/g.

O=C([O-])CN(CCN(CCc1ccc(NC(=O)CCCCCNC(=O)CCC(=O)NCCCC[C@H](NC(=O)N[C@@H](CCC(=O)O)C(=O)O)C(=O)O)cc1)CCN(CC(=O)[O-])Cc1cccc(C(=O)[O-])n1)Cc1cccc(C(=O)[O-])n1.[111In+3] [[^111In]In-Neunpa-1, reference compound]	0.11
O=C([O-])CN(Cc1cccc(C(=O)[O-])n1)C[C@H](Cc1ccc(NC(=O)[C@H](CCCCNC(=O)CCC(=O)NCCCC[C@H](NC(=O)N[C@@H](CCC(=O)O)C(=O)O)C(=O)O)NC(=O)COCCOCCOCC(=O)N[C@@H](CCCCNC(=O)CCCc2ccc(I)cc2)C(=O)O)cc1)N(CC(=O)[O-])Cc1cccc(C(=O)[O-])n1.[111In+3] [[^111In]In-Octapa-3]	1.26
O=C([O-])CN1CCN(C(CCC(=O)NCCCC[C@H](NC(=O)N[C@@H](CCC(=O)O)C(=O)O)C(=O)O)C(=O)[O-])CCN(CC(=O)[O-])CCN(C(CCC(=O)N[C@@H](CCCCNC(=O)CCCc2ccc(I)cc2)C(=O)O)C(=O)[O-])CC1.[111In+3] (stereo partly shown) [[^111In]In-PSMA-DA1]	2.15

Kindly review the next compound as well.
Provide the documented Muscle with LNCaP tumor-transplanted mouse as the system for O=C(O)CC[C@H](NC(=O)N[C@@H](CCCCNC(=O)[C@H](Cc1ccc2ccccc2c1)NC(=O)[C@H]1CC[C@H](CNC(=O)CCC(C(=O)O)N2CCN(CC(=O)O)CCN(C(CCC(=O)N[C@@H](CCCCNC(=O)CCCc3ccc(I)cc3)C(=O)O)C(=O)O)CCN(CC(=O)O)CC2)CC1)C(=O)O)C(=O)O (stereo partly shown) [[^111In]In-PSMA-NAT-DA1, metal not drawn]
3.69

====

- System: LNCaP tumor-transplanted mouse
- ASSAY_PROTOCOL: Internal radioactivity distribution using LNCaP tumor-transplanted mouse
- Assay type: in vivo
- ASSAY_CONTEXT: 192 h after administration
PROPERTY_LABEL: Intestine (% ID/g)
Entry rule: numbers only, all in % ID/g.

Examples from the recorded data:
O=C([O-])CN(Cc1cccc(C(=O)[O-])n1)C[C@H](Cc1ccc(NC(=O)CCCCCNC(=O)CCC(=O)NCCCC[C@H](NC(=O)N[C@@H](CCC(=O)O)C(=O)O)C(=O)O)cc1)N(CC(=O)[O-])Cc1cccc(C(=O)[O-])n1.[111In+3] [[^111In]In-Octapa-1, reference compound]	0.02
O=C(O)CC[C@H](NC(=O)N[C@@H](CCCCNC(=O)[C@H](Cc1ccc2ccccc2c1)NC(=O)[C@H]1CC[C@H](CNC(=O)CCC(C(=O)O)N2CCN(CC(=O)O)CCN(C(CCC(=O)N[C@@H](CCCCNC(=O)CCCc3ccc(I)cc3)C(=O)O)C(=O)O)CCN(CC(=O)O)CC2)CC1)C(=O)O)C(=O)O (some centres unmarked) [[^111In]In-PSMA-NAT-DA1, metal not drawn]	0.55

Give the measured Intestine of O=C([O-])CN(Cc1cccc(C(=O)[O-])n1)C[C@H](Cc1ccc(NC(=O)[C@H](CCCCNC(=O)CCC(=O)NCCCC[C@H](NC(=O)N[C@@H](CCC(=O)O)C(=O)O)C(=O)O)NC(=O)CCCc2ccc(I)cc2)cc1)N(CC(=O)[O-])Cc1cccc(C(=O)[O-])n1.[111In+3] [[^111In]In-Octapa-2] .
0.27

Give the measured Intestine of O=C([O-])CN(Cc1cccc(C(=O)[O-])n1)C[C@H](Cc1ccc(NC(=O)[C@H](CCCCNC(=O)CCC(=O)NCCCC[C@H](NC(=O)N[C@@H](CCC(=O)O)C(=O)O)C(=O)O)NC(=O)COCCOCCOCC(=O)N[C@@H](CCCCNC(=O)CCCc2ccc(I)cc2)C(=O)O)cc1)N(CC(=O)[O-])Cc1cccc(C(=O)[O-])n1.[111In+3] [[^111In]In-Octapa-3] .
0.05

Give the measured Intestine of O=C([O-])CN1CCN(C(CCC(=O)NCCCC[C@H](NC(=O)N[C@@H](CCC(=O)O)C(=O)O)C(=O)O)C(=O)[O-])CCN(CC(=O)[O-])CCN(C(CCC(=O)Nc2ccccc2)C(=O)[O-])CC1.[111In+3] (some centres unmarked) [[^111In]In-PSMA-DB, reference compound] .
0.13

Give the measured Intestine of O=C([O-])CN(CCN(CCc1ccc(NC(=O)CCCCCNC(=O)CCC(=O)NCCCC[C@H](NC(=O)N[C@@H](CCC(=O)O)C(=O)O)C(=O)O)cc1)CCN(CC(=O)[O-])Cc1cccc(C(=O)[O-])n1)Cc1cccc(C(=O)[O-])n1.[111In+3] [[^111In]In-Neunpa-1, reference compound] .
0.06

Give the measured Intestine of O=C([O-])CN(CCN(CCc1ccc(NC(=O)[C@H](CCCCNC(=O)CCC(=O)NCCCC[C@H](NC(=O)N[C@@H](CCC(=O)O)C(=O)O)C(=O)O)NC(=O)CCCc2ccc(I)cc2)cc1)CCN(CC(=O)[O-])Cc1cccc(C(=O)[O-])n1)Cc1cccc(C(=O)[O-])n1.[111In+3] [[^111In]In-Neunpa-2] .
0.10

Give the measured Intestine of O=C([O-])CN1CCN(C(CCC(=O)NCCCC[C@H](NC(=O)N[C@@H](CCC(=O)O)C(=O)O)C(=O)O)C(=O)[O-])CCN(CC(=O)[O-])CCN(C(CCC(=O)N[C@@H](CCCCNC(=O)CCCc2ccc(I)cc2)C(=O)O)C(=O)[O-])CC1.[111In+3] (some centres unmarked) [[^111In]In-PSMA-DA1] .
0.12

====

Kidney reference
- System: LNCaP tumor-transplanted mouse
- ASSAY_PROTOCOL: Internal radioactivity distribution using LNCaP tumor-transplanted mouse
- Format: in vivo
- ASSAY_CONTEXT: 1 h after administration
Entry rule: numbers only, all in % ID/g.

O=C([O-])CN1CCN(C(CCC(=O)NCCCC[C@H](NC(=O)N[C@@H](CCC(=O)O)C(=O)O)C(=O)O)C(=O)[O-])CCN(CC(=O)[O-])CCN(C(CCC(=O)N[C@@H](CCCCNC(=O)CCCc2ccc(I)cc2)C(=O)O)C(=O)[O-])CC1.[111In+3] (stereo partly shown) [[^111In]In-PSMA-DA1]	34.3
O=C([O-])CN(CCN(CCc1ccc(NC(=O)[C@H](CCCCNC(=O)CCC(=O)NCCCC[C@H](NC(=O)N[C@@H](CCC(=O)O)C(=O)O)C(=O)O)NC(=O)CCCc2ccc(I)cc2)cc1)CCN(CC(=O)[O-])Cc1cccc(C(=O)[O-])n1)Cc1cccc(C(=O)[O-])n1.[111In+3] [[^111In]In-Neunpa-2]	90.1
O=C([O-])CN(Cc1cccc(C(=O)[O-])n1)C[C@H](Cc1ccc(NC(=O)[C@H](CCCCNC(=O)CCC(=O)NCCCC[C@H](NC(=O)N[C@@H](CCC(=O)O)C(=O)O)C(=O)O)NC(=O)CCCc2ccc(I)cc2)cc1)N(CC(=O)[O-])Cc1cccc(C(=O)[O-])n1.[111In+3] [[^111In]In-Octapa-2]	121

Kindly review the next molecule as well.
Provide the documented Kidney with LNCaP tumor-transplanted mouse as the system for O=C([O-])CN(CCN(CCc1ccc(NC(=O)CCCCCNC(=O)CCC(=O)NCCCC[C@H](NC(=O)N[C@@H](CCC(=O)O)C(=O)O)C(=O)O)cc1)CCN(CC(=O)[O-])Cc1cccc(C(=O)[O-])n1)Cc1cccc(C(=O)[O-])n1.[111In+3] [[^111In]In-Neunpa-1, reference compound]
214

====

- Test system: LNCaP tumor-transplanted mouse
- ASSAY_PROTOCOL: Internal radioactivity distribution using LNCaP tumor-transplanted mouse
- Format: in vivo
- ASSAY_CONTEXT: 192 h after administration
Heart reference
Entry rule: numbers only, all in % ID/g.

Provide the documented Heart with LNCaP tumor-transplanted mouse as the system for O=C([O-])CN1CCN(C(CCC(=O)NCCCC[C@H](NC(=O)N[C@@H](CCC(=O)O)C(=O)O)C(=O)O)C(=O)[O-])CCN(CC(=O)[O-])CCN(C(CCC(=O)N[C@@H](CCCCNC(=O)CCCc2ccc(I)cc2)C(=O)O)C(=O)[O-])CC1.[111In+3] (stereo partly shown) [[^111In]In-PSMA-DA1]
0.41

Provide the documented Heart with LNCaP tumor-transplanted mouse as the system for O=C([O-])CN(Cc1cccc(C(=O)[O-])n1)C[C@H](Cc1ccc(NC(=O)[C@H](CCCCNC(=O)CCC(=O)NCCCC[C@H](NC(=O)N[C@@H](CCC(=O)O)C(=O)O)C(=O)O)NC(=O)CCCc2ccc(I)cc2)cc1)N(CC(=O)[O-])Cc1cccc(C(=O)[O-])n1.[111In+3] [[^111In]In-Octapa-2]
0.06

Provide the documented Heart with LNCaP tumor-transplanted mouse as the system for O=C([O-])CN(Cc1cccc(C(=O)[O-])n1)C[C@H](Cc1ccc(NC(=O)[C@H](CCCCNC(=O)CCC(=O)NCCCC[C@H](NC(=O)N[C@@H](CCC(=O)O)C(=O)O)C(=O)O)NC(=O)COCCOCCOCC(=O)N[C@@H](CCCCNC(=O)CCCc2ccc(I)cc2)C(=O)O)cc1)N(CC(=O)[O-])Cc1cccc(C(=O)[O-])n1.[111In+3] [[^111In]In-Octapa-3]
0.12

Provide the documented Heart with LNCaP tumor-transplanted mouse as the system for O=C([O-])CN(Cc1cccc(C(=O)[O-])n1)C[C@H](Cc1ccc(NC(=O)CCCCCNC(=O)CCC(=O)NCCCC[C@H](NC(=O)N[C@@H](CCC(=O)O)C(=O)O)C(=O)O)cc1)N(CC(=O)[O-])Cc1cccc(C(=O)[O-])n1.[111In+3] [[^111In]In-Octapa-1, reference compound]
0.01
